- experimental_system: human IL-23R (Homo sapiens)
- Construct: UniProtKB—Q5VWK5, amino acids 22-629; secretion signal of the plasmid (Promega N1371); expressed in transfected cells
- experimental_details: Binding assay (NanoBRET displacement of fluorophore-labelled reference compound) for estimating binding affinity to human IL-23R
- condition_context: Table 3-1; read-out: Ki hIL-23R
pKi: −log10 of the molar value. *1 amine or outer side, *2 acyl side, *3 side chain or, on linkers, in order; H or OH if unused. Where a SMILES comes first, the peptide text is derived from it. Bridges are numbered along the chain shown (N, C = ends). [ ]: non-standard residue; d: D form. The star is where a group is joined. Me3N+(CH2)2O(CH2)2O(CH2)2CO = C[N+](C)(C)CCOCCOCCC(=O)*; Trp(4-F) = N[C@@H](Cc1c[nH]c2cccc(F)c12)C(=O)O; 2Nal = N[C@@H](Cc1ccc2ccccc2c1)C(=O)O; AEF = NCCOc1ccc(C[C@H](N)C(=O)O)cc1; X1 = O=C(Cc1ccc(CN[*:1])cc1)[*:2]; αMeR = C[C@](N)(CCCNC(=N)N)C(=O)O; X22 = NC(=O)C[C@@H](N*)c1cccnc1; αMeL = CC(C)C[C@](C)(N)C(=O)O; CH2COCH2 = O=C(C[*:1])C[*:2]; 3Amb = NCc1cccc(C(=O)O)c1; dDab = NCC[C@@H](N)C(=O)O; Orn = NCCC[C@H](N)C(=O)O; Pyrrolidide = C1CCN(*)C1; Dab = NCC[C@H](N)C(=O)O; Ahx = NCCCCCC(=O)O

- molecule: "CC(C)C[C@]1(C)NC(=O)[C@H](Cc2ccc3ccccc3c2)NC(=O)[C@H](Cc2ccc(OCCN)cc2)NC(=O)[C@@H]2CCNC(=O)CC[C@H](NC(=O)[C@H](CO)NC(=O)Cc3ccc(cc3)CNC(=O)CC[C@@H](C(=O)N[C@@H](CCN)C(N)=O)NC1=O)C(=O)N[C@@H](Cc1c[nH]c3cccc(F)c13)C(=O)N[C@@H](CCC(N)=O)C(=O)N2 [Compound 138] ([X1]SE[Trp(4-F)]Q[Dab][AEF][2Nal][αMeL]E[Dab]-NH2; lactam 3-6, N-10)"
  pKi: 9.14
- molecule: "CC(C)C[C@]1(C)NC(=O)[C@H](Cc2ccc3ccccc3c2)NC(=O)[C@H](Cc2ccc(OCCN)cc2)NC(=O)[C@@H]2CSCC(=O)CSC[C@H](NC(=O)[C@H](CO)NC(=O)Cc3ccc(cc3)CNC(=O)CC[C@@H](C(=O)N[C@H](CCNC(=O)CCOCCOCC[N+](C)(C)C)C(N)=O)NC1=O)C(=O)N[C@@H](Cc1c[nH]c3ccccc13)C(=O)N[C@@H](CCC(N)=O)C(=O)N2 [Compound 109] ([X1]SCWQC[AEF][2Nal][αMeL]E[dDab](Me3N+(CH2)2O(CH2)2O(CH2)2CO)-NH2; linker 3-6 via CH2COCH2; lactam N-10)"
  pKi: 9.34
- molecule: "CC(C)C[C@]1(C)NC(=O)[C@H](Cc2ccc3ccccc3c2)NC(=O)[C@H](Cc2ccc(OCCN)cc2)NC(=O)[C@@H]2CSCC(=O)CSC[C@H](NC(=O)[C@H](CO)NC(=O)c3cccc(c3)CNC(=O)CC[C@@H](C(=O)N[C@@H](CCCNC(=N)N)C(=O)N[C@H](CC(N)=O)c3cccnc3)NC1=O)C(=O)N[C@@H](Cc1c[nH]c3ccccc13)C(=O)N[C@@H](CCC(N)=O)C(=O)N2 [Compound 151] ([3Amb]SCWQC[AEF][2Nal][αMeL]ER-X22; linker 3-6 via CH2COCH2; lactam N-10)"
  pKi: 9.17
- molecule: "CC(C)C[C@]1(C)NC(=O)[C@H](Cc2ccc3ccccc3c2)NC(=O)[C@H](Cc2ccc(OCCN)cc2)NC(=O)[C@@H]2CCNC(=O)CC[C@H](NC(=O)[C@H](CO)NC(=O)Cc3ccc(cc3)CNC(=O)CC[C@@H](C(=O)N[C@@H](CCN)C(N)=O)NC1=O)C(=O)N[C@@H](Cc1c[nH]c3ccccc13)C(=O)N[C@@H](CCC(=O)N1CCCC1)C(=O)N2 [Compound 146] ([X1]SEWE(Pyrrolidide)[Dab][AEF][2Nal][αMeL]E[Dab]-NH2; lactam 3-6, N-10)"
  pKi: 9.00
- molecule: "CC(C)C[C@]1(C)NC(=O)[C@H](Cc2ccc3ccccc3c2)NC(=O)[C@H](Cc2ccc(OCCN)cc2)NC(=O)[C@@H]2CCNC(=O)CC[C@H](NC(=O)[C@H](C(C)C)NC(=O)Cc3ccc(cc3)CNC(=O)CC[C@@H](C(=O)N[C@@H](CCN)C(N)=O)NC1=O)C(=O)N[C@@H](Cc1c[nH]c3ccccc13)C(=O)N[C@@H](CCC(N)=O)C(=O)N2 [Compound 126] ([X1]VEWQ[Dab][AEF][2Nal][αMeL]E[Dab]-NH2; lactam 3-6, N-10)"
  pKi: 9.14
- molecule: "CC(C)C[C@]1(C)NC(=O)[C@H](Cc2ccc3ccccc3c2)NC(=O)[C@H](Cc2ccc(OCCN)cc2)NC(=O)[C@@H]2CSCC(=O)CSC[C@H](NC(=O)[C@H](CO)NC(=O)c3cccc(c3)CNC(=O)CC[C@@H](C(=O)N[C@@](C)(CCCNC(=N)N)C(N)=O)NC1=O)C(=O)N[C@@H](Cc1c[nH]c3ccccc13)C(=O)N[C@@H](CCC(N)=O)C(=O)N2 [Compound 42] ([3Amb]SCWQC[AEF][2Nal][αMeL]E[αMeR]-NH2; linker 3-6 via CH2COCH2; lactam N-10)"
  pKi: 8.56
- molecule: "CC(C)C[C@]1(C)NC(=O)[C@H](Cc2ccc3ccccc3c2)NC(=O)[C@H](Cc2ccc(OCCN)cc2)NC(=O)[C@@H]2CSCC(=O)CSC[C@H](NC(=O)[C@H](CO)NC(=O)CCCCCNC(=O)CC[C@@H](C(=O)N[C@H](CCCNC(=N)N)C(N)=O)NC1=O)C(=O)N[C@@H](Cc1c[nH]c3ccccc13)C(=O)N[C@@H](CCC(N)=O)C(=O)N2 [Compound 87] ([Ahx]SCWQC[AEF][2Nal][αMeL]E[dR]-NH2; linker 3-6 via CH2COCH2; lactam N-10)"
  pKi: 9.36
- molecule: "CC(C)C[C@]1(C)NC(=O)[C@H](Cc2ccc3ccccc3c2)NC(=O)[C@H](Cc2ccc(OCCN)cc2)NC(=O)[C@@H]2CCCNC(=O)CC[C@H](NC(=O)[C@H](CO)NC(=O)c3cccc(c3)CNC(=O)CC[C@@H](C(=O)N[C@@H](CCCNC(=N)N)C(N)=O)NC1=O)C(=O)N[C@@H](Cc1c[nH]c3ccccc13)C(=O)N[C@@H](CCC(N)=O)C(=O)N2 [Compound 69] ([3Amb]SEWQ[Orn][AEF][2Nal][αMeL]ER-NH2; lactam 3-6, N-10)"
  pKi: 8.56
- molecule: "CC(=O)N[C@H]1CCCCNC(=O)CC[C@@H](C(=O)N[C@@H](CCCNC(=N)N)C(N)=O)NC(=O)[C@H](CC(C)C)NC(=O)[C@H](Cc2ccc3ccccc3c2)NC(=O)[C@H](Cc2ccc(OCCN)cc2)NC(=O)[C@@H]2CSCC(=O)CSC[C@H](NC(=O)[C@H](CO)NC1=O)C(=O)N[C@@H](Cc1c[nH]c3ccccc13)C(=O)N[C@@H](CCC(N)=O)C(=O)N2 [Compound 29] (Ac-KSCWQC[AEF][2Nal]LER-NH2; lactam 1-10; linker 3-6 via CH2COCH2)"
  pKi: 9.17
